Ki data for hMCHR (Homo sapiens, UniProt Q99705) follow.

smilesStructure | Ki
CC(=O)Nc1cccc(-c2ccc(C3(CNC(=O)Nc4cc(Cl)cc(Cl)c4)CCN(C4CCCCC4)CC3)cc2)c1 | 0.2 to 10 nM
CCN1CCC(CNC(=O)Nc2cc(Cl)cc(Cl)c2)(c2ccc(-c3cccc(OC(F)(F)F)c3)cc2)CC1 | 11 to 100 nM
CN(CC1(c2ccc(-c3cccc(C#N)c3)cc2)CCN(CC2CC2)CC1)C(=O)Nc1ccc(Cl)c(C(F)(F)F)c1 | 11 to 100 nM
CCCN1CCC(CNC(=O)Nc2ccc(Cl)cc2C(F)(F)F)(c2ccc(-c3cccc(C#N)c3)cc2)CC1 | 11 to 100 nM

###

- studyTarget: hMCHR (Homo sapiens, UniProt Q99705)
- Sequence (Q99705 whole entry): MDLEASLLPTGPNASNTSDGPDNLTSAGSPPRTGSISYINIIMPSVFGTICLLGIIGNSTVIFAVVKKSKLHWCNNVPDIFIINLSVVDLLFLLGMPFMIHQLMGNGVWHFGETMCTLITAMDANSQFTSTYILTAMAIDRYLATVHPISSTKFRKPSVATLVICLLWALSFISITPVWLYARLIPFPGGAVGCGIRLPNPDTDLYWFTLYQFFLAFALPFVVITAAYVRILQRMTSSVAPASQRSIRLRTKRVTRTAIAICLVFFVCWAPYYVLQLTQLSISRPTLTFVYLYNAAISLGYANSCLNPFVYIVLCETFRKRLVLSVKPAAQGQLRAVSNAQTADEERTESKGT
pKi: −log10 of the molar value.
The molecules listed here are annotated with their pKi.
measuredEndpoint: pKi

smilesStructure | measuredEndpoint | observed
N#Cc1cccc(-c2ccc(C3(CNCC4CC4)CCN(C(=O)Nc4cc(Cl)cc(Cl)c4)CC3)cc2)c1 | pKi | 7.00 to 7.96
CN1CCC(CNC(=O)Nc2ccc(Cl)cc2Cl)(c2ccc(-c3cccc(C#N)c3)cc2)CC1 | pKi | 7.00 to 7.96
Cc1ccc(C2(CNC(=O)Nc3cc(Cl)cc(Cl)c3)CCN(C3CCCC3)CC2)cc1 | pKi | 5.26 to 7.00
O=C(NCC1(c2ccc(-c3cccc(Cl)c3)cc2)CCN(CC2CC2)CC1)Nc1ccc(Cl)c(C(F)(F)F)c1 | pKi | 7.00 to 7.96
O=C(NCC1(c2ccc(-c3cccc(Cl)c3)cc2)CCN(C2CCCC2)CC1)Nc1cc(Cl)cc(Cl)c1 | pKi | 8.00 to 9.70
N#Cc1cccc(-c2ccc(C3(CNC(=O)Nc4cc(Cl)cc(Cl)c4)CCN(C4CCOCC4)CC3)cc2)c1 | pKi | 8.00 to 9.70
N#Cc1cccc(-c2ccc(C3(CNC(=O)Nc4cc(C(F)(F)F)ccc4Cl)CCN(CC4CC4)CC3)cc2)c1 | pKi | 7.00 to 7.96
CN1CCC(CNC(=O)Nc2ccc(F)cc2F)(c2ccc(-c3cccc(C#N)c3)cc2)CC1 | pKi | 8.00 to 9.70
CCCNCC1(c2ccc(-c3cccc(C#N)c3)cc2)CCN(C(=O)Nc2cc(Cl)cc(Cl)c2)CC1 | pKi | 7.00 to 7.96
COCCN1CCC(CNC(=O)Nc2ccc(F)c(Cl)c2)(c2ccc(-c3cccc(C#N)c3)cc2)CC1 | pKi | 8.00 to 9.70
CN(CC1(c2ccc(-c3cccc(C#N)c3)cc2)CCN(CC2CC2)CC1)C(=O)Nc1ccc(F)c(Cl)c1 | pKi | 7.00 to 7.96
CN1CCC(CNC(=O)Nc2cc(F)cc(F)c2)(c2ccc(-c3cccc(Cl)c3)cc2)CC1 | pKi | 8.00 to 9.70
COCCN1CCC(CN(C)C(=O)Nc2cc(Cl)cc(Cl)c2)(c2ccc(-c3cccc(C#N)c3)cc2)CC1 | pKi | 8.00 to 9.70
CCCN1CCC2(CC1)CN(C(=O)Nc1ccc(Cl)c(Cl)c1)c1ccc(-c3cccc(C#N)c3)cc12 | pKi | 5.26 to 7.00
Cc1ccc(C2(CNC(=O)Nc3cc(Cl)cc(Cl)c3)CCNCC2)cc1 | pKi | 5.26 to 7.00
CN(CC1(c2ccc(-c3cccc(C#N)c3)cc2)CCN(CC2CC2)CC1)C(=O)Nc1cc(Cl)cc(Cl)c1 | pKi | 8.00 to 9.70
CN(CC1(c2ccc(-c3cccc(C#N)c3)cc2)CCN(CC2CC2)CC1)C(=O)Nc1cc(F)cc(F)c1 | pKi | 7.00 to 7.96
N#Cc1cccc(-c2ccc(C3(CNC(=O)Nc4ccc(Cl)cc4C(F)(F)F)CCN(CC4CC4)CC3)cc2)c1 | pKi | 5.26 to 7.00
